assay-name: Stability in simulated intestinal fluid
Assay type: in vitro ADME
measurement-setup: 2 μM, 37° C., pH 7.5, 24 h
Where a SMILES comes first, the peptide text is derived from it. [ ]: non-standard residue; d: D form. ξ: configuration not given here. ξBip(2'-Et-4'-OMe) = CCc1cc(OC)ccc1-c1ccc(CC(N)C(=O)O)cc1; ξαMe(hhPhe) = CC(N)(CCCc1ccccc1)C(=O)O; ξαMeD = CC(N)(CC(=O)O)C(=O)O; ξαMeS = CC(N)(CO)C(=O)O
parameter: % degradation in 24 h when incubated with simulated intestinal fluid
Don't forget the unit after the number, please.

Form: molecule = CCc1cc(OC)ccc1-c1ccc(CC(NC(=O)C(C)(CC(=O)O)NC(=O)C(C)(CO)NC(=O)[C@@H](NC(=O)[C@H](Cc2ccccc2)NC(=O)[C@@H](NC(=O)CNC(=O)[C@H](CCC(=O)O)NC(=O)[C@H](C)NC(=O)[C@H](Cc2c[nH]cn2)NC(=O)[C@@H](N)C(C)C)[C@@H](C)O)[C@@H](C)O)C(=O)NC(C)(CCCc2ccccc2)C(N)=O)cc1 (some centres unmarked) [compound 112] (H-VHAEGTFT[ξαMeS][ξαMeD][ξBip(2'-Et-4'-OMe)][ξαMe(hhPhe)]-NH2) ; % degradation in 24 h when incubated with simulated intestinal fluid = 100%

CCc1cc(OC)ccc1-c1ccc(CC(NC(=O)C(C)(CC(=O)O)NC(=O)C(C)(CO)NC(=O)[C@@H](NC(=O)[C@H](Cc2ccccc2)NC(=O)[C@@H](NC(=O)CNC(=O)[C@H](CCC(N)=O)NC(=O)[C@H](C)NC(=O)[C@H](Cc2c[nH]cn2)NC(=O)[C@@H](N)C(C)C)[C@@H](C)O)[C@@H](C)O)C(=O)NC(C)(CCCc2ccccc2)C(N)=O)cc1 (some centres unmarked) [compound 108] (H-VHAQGTFT[ξαMeS][ξαMeD][ξBip(2'-Et-4'-OMe)][ξαMe(hhPhe)]-NH2) yielded % degradation in 24 h when incubated with simulated intestinal fluid of 00%

Where do the numbers come from? From patent US20120264685A1.
